tested_target: N-terminal GST tagged recombinant human RET cytoplasmic domain (aa 658-end), wild type RET kinase (Homo sapiens (Human))
Sequence (P07949 658-1114): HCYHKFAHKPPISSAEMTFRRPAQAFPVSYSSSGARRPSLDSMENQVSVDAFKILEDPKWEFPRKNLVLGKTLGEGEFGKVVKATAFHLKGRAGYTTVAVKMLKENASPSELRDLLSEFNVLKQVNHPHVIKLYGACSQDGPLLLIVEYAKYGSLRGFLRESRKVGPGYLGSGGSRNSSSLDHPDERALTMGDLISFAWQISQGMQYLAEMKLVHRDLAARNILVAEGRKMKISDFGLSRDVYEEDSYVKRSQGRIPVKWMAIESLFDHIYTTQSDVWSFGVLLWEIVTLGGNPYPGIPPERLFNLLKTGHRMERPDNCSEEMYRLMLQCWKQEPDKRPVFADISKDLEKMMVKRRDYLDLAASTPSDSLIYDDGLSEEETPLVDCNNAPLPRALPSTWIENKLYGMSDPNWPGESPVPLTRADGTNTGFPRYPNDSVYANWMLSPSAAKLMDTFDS
experiment_description: RET Enzyme Assay (HTRF KinEASE-TK), wild type RET
Assay type: biochemical
assay_context: wild type RET, 1 mM ATP
Where a name gives a salt, the structure may show the parent alone.
measure: pIC50
Numbers only, as −log10 of the molar value.

CC(C)C[C@H](O)C(=O)N1CCN(c2ccc(-c3cc(-c4cnn(C)c4)cn4ncc(C#N)c34)cn2)CC1: 7.80
COc1ccc(CN2CCN(c3ccc(-c4cc(-c5cnn(CCOC(C)C)c5)cn5ncc(C#N)c45)cn3)CC2)cn1: 7.52
COc1ccc(CN2CCN(c3ccc(-c4cc(-c5cnn(CC(C)CO)c5)cn5ncc(C#N)c45)cn3)CC2)cn1 (stereo in doubt) [Example 708]: 7.71

Let's switch to this molecule now.
Entry Cn1cc(-c2cc(-c3ccc(N4CCN(C(=O)CNC(C)(C)C)CC4)nc3)c3c(C#N)cnn3c2)cn1 [Example 22, dihydrochloride] has what pIC50?
7.83

Provenance of the data: patent US10023570B2
